From: paper PMC5632533

Recorded Granulocytes, one value per entry.
System: ICR (CD-1) mice
Experiment: In vivo toxicity in mice (SC, IN, IP routes)
Conditions: IP, 3 doses (1hr, 12hr, 24hr); RN7-IN10, RN7-IN8 20 mg/kg; RN7-IN9, RN7-IN6 10 mg/kg; day 7; mean±SD, 4 mice
Write the value in % as a bare number.

Below, 3 substances whose answers are already recorded.
FLGGLIKWWPWRR-NH2 [RN7-IN6, hybrid peptide of ranalexin (residues 1-7) and indolicidin (residues 8-13)]	57.87
FLGGLIKWKWPWWPWRR-NH2 [RN7-IN10, hybrid peptide of ranalexin (residues 1-7) and indolicidin (residues 4-13)]	46.27
FLGGLIKKWPWWPWRR-NH2 [RN7-IN9, hybrid peptide of ranalexin (residues 1-7) and indolicidin (residues 5-13)]	53.02

Moving on to the next substance.
Tell me reported Granulocytes for FLGGLIKWPWWPWRR-NH2 [RN7-IN8, hybrid peptide of ranalexin (residues 1-7) and indolicidin (residues 6-13)] , tested with ICR (CD-1) mice.
53.38
